biological target: 5-hydroxytryptamine receptor 2C (Homo sapiens); assay: Agonist activity at human 5-HT2C receptor expressed in HEK293 cells assessed as calcium flux by FLIPR assay relative to 5-HT; type: functional, cell-based
ENDPOINT_LABEL: Emax (%)
Numbers only, in %.

Worked cases, Emax given:
INSERT INTO results (structure_as_smiles, reported_result) VALUES
  ('C=CCOc1ccc(F)cc1[C@@H]1C[C@H]1CN', 87),
  ('Cl.NC[C@H]1C[C@@H]1c1cc(F)ccc1OCCF', 89);

Now for the compound whose Emax we want.
Request: Item: C#CCOc1ccc(Cl)cc1[C@H]1C[C@@H]1CN Test system: 5-hydroxytryptamine receptor 2C (Homo sapiens) Read-out: Emax Value: ?
Result: 65

---

molecular target: 5-hydroxytryptamine receptor 2B (Homo sapiens); assay: Agonist activity at human 5-HT2B receptor expressed in HEK293 cells assessed as calcium flux by FLIPR assay; type: functional, cell-based
Sequence (P41595 whole entry): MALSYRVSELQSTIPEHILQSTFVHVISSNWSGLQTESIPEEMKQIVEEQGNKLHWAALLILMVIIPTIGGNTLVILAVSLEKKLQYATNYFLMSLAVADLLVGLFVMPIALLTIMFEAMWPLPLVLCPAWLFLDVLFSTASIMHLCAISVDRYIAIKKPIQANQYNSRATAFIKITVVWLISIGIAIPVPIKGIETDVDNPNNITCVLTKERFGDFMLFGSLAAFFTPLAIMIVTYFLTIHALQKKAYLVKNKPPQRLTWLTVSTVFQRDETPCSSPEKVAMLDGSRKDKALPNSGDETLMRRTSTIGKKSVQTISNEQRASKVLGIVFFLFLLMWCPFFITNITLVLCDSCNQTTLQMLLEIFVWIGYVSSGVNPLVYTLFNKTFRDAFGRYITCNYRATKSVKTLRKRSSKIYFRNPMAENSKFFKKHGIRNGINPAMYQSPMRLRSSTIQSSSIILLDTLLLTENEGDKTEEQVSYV
pEC50: −log10 of the molar value.
Response key: Met means pEC50 >= 6; Not met means pEC50 < 6.

Consider the following illustrative entries.
INSERT INTO measurements (structure_as_smiles, experimental_system, answer_label) VALUES
  ('NC[C@@H]1C[C@H]1c1cc(Cl)ccc1OCC1CC1', '5-hydroxytryptamine receptor 2B (Homo sapiens)', 'Not met'),
  ('CCOc1ccc(Cl)cc1[C@H]1C[C@@H]1CN', '5-hydroxytryptamine receptor 2B (Homo sapiens)', 'Met'),
  ('CCOc1ccc(Cl)cc1[C@@H]1C[C@H]1CN', '5-hydroxytryptamine receptor 2B (Homo sapiens)', 'Not met'),
  ('COCCOc1ccc(Cl)cc1[C@@H]1C[C@H]1CN', '5-hydroxytryptamine receptor 2B (Homo sapiens)', 'Not met'),
  ('C=C(F)COc1ccc(Cl)cc1[C@H]1C[C@@H]1CN.Cl', '5-hydroxytryptamine receptor 2B (Homo sapiens)', 'Not met');

Request: Is reported pEC50 greater than or equal to 6 here: CCCOc1ccc(Cl)cc1[C@@H]1C[C@H]1CN
Result: Not met

---

Can you tell me Emax for the items I'm about to list?
target: UniProt P28335; assay: Agonist activity at human 5-HT2C receptor expressed in HEK293 cells assessed as calcium flux by FLIPR assay relative to 5-HT; assay type: functional, cell-based
Sequence (P28335 whole entry): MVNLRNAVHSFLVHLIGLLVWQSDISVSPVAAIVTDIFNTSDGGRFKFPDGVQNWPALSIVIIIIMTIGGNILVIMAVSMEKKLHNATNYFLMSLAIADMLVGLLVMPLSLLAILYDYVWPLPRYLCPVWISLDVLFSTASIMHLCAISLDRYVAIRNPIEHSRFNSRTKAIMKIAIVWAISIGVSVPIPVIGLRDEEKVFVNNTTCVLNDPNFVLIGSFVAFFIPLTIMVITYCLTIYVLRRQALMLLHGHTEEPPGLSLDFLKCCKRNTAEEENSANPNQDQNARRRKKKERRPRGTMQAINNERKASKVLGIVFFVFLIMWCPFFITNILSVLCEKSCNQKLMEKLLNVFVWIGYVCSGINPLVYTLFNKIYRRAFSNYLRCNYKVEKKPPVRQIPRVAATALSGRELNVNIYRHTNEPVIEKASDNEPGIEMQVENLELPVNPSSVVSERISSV
Answers are plain numbers, in %.

Worked set:
INSERT INTO results (structure_as_smiles, experimental_system, reported_result) VALUES
  ('C=CCOc1ccc(Cl)cc1[C@H]1C[C@@H]1CN.O=C(O)C(F)(F)F', 'UniProt P28335', 80),
  ('CCOc1ccc(Cl)cc1[C@@H]1C[C@H]1CN', 'UniProt P28335', 72),
  ('NC[C@@H]1C[C@H]1c1cc(Cl)ccc1OCCF', 'UniProt P28335', 59);

For the 4 compounds below, give their Emax values.
1. COCCOc1ccc(Cl)cc1[C@H]1C[C@@H]1CN
2. CCCCOc1ccc(Cl)cc1[C@@H]1C[C@H]1CN
3. C=C(F)COc1ccc(F)cc1[C@@H]1C[C@H]1CN
4. NC[C@@H]1C[C@H]1c1cc(Cl)ccc1OCC1CC1

Result:
[8, 50, 62, 51]

Record Emax per entry; entries follow.
1. NC[C@H]1C[C@@H]1c1cc(Cl)ccc1OCC(F)F
2. CCCCOc1ccc(Cl)cc1[C@H]1C[C@@H]1CN

Result:
[81, 33]
